Assay: Tryptophan fluorescent binding assay, POPC vesicles
Conditions: 50 μM peptide, PBS pH 7.4, lipid per peptide
outcomeMeasure: Lipid Concentration-induced 50% Peptide Binding, POPC Vesicle

- CC(C)C[C@H](NC(=O)CN)C(=O)N[C@@H](CC(C)C)C(=O)N[C@@H](CCC(=O)O)C(=O)N[C@@H](CC(C)C)C(=O)N[C@@H](CC(C)C)C(=O)N[C@@H](CCCCN)C(=O)N[C@@H](CC(C)C)C(=O)N[C@@H](CC(C)C)C(=O)N[C@@H](CC(C)C)C(=O)N[C@@H](Cc1c[nH]cn1)C(=O)N[C@@H](C)C(=O)N[C@@H](C)C(=O)NCC(=O)N[C@@H](Cc1c[nH]c2ccccc12)C(N)=O: 0.75 L/P
- CC(C)C[C@H](NC(=O)CN)C(=O)N[C@@H](CC(C)C)C(=O)N[C@@H](CCC(=O)O)C(=O)N[C@@H](CC(C)C)C(=O)N[C@@H](CC(C)C)C(=O)N[C@@H](CCCCN)C(=O)N[C@@H](CC(C)C)C(=O)N[C@@H](CC(C)C)C(=O)N[C@@H](CC(C)C)C(=O)N[C@@H](CCC(=O)O)C(=O)N[C@@H](C)C(=O)N[C@@H](C)C(=O)NCC(=O)N[C@@H](Cc1c[nH]c2ccccc12)C(N)=O: 2.75 L/P
- CC(C)C[C@H](NC(=O)CN)C(=O)N[C@@H](CC(C)C)C(=O)N[C@@H](CCCCN)C(=O)N[C@@H](CC(C)C)C(=O)N[C@@H](CC(C)C)C(=O)N[C@@H](Cc1c[nH]cn1)C(=O)N[C@@H](CC(C)C)C(=O)N[C@@H](CC(C)C)C(=O)N[C@@H](CC(C)C)C(=O)N[C@@H](Cc1c[nH]cn1)C(=O)N[C@@H](C)C(=O)N[C@@H](C)C(=O)NCC(=O)N[C@@H](Cc1c[nH]c2ccccc12)C(N)=O: 3.50 L/P
- CC(C)C[C@H](NC(=O)CN)C(=O)N[C@@H](CC(C)C)C(=O)N[C@@H](CCC(=O)O)C(=O)N[C@@H](CC(C)C)C(=O)N[C@@H](CC(C)C)C(=O)N[C@@H](Cc1c[nH]cn1)C(=O)N[C@@H](CC(C)C)C(=O)N[C@@H](CC(C)C)C(=O)N[C@@H](CC(C)C)C(=O)N[C@@H](Cc1c[nH]cn1)C(=O)N[C@@H](C)C(=O)N[C@@H](C)C(=O)NCC(=O)N[C@@H](Cc1c[nH]c2ccccc12)C(N)=O: 0.94 L/P
- CC(C)C[C@H](NC(=O)CN)C(=O)N[C@@H](CC(C)C)C(=O)N[C@@H](CCCCN)C(=O)N[C@@H](CC(C)C)C(=O)N[C@@H](CC(C)C)C(=O)N[C@@H](Cc1c[nH]cn1)C(=O)N[C@@H](CC(C)C)C(=O)N[C@@H](CC(C)C)C(=O)N[C@@H](CC(C)C)C(=O)N[C@@H](CCCCN)C(=O)N[C@@H](C)C(=O)N[C@@H](C)C(=O)NCC(=O)N[C@@H](Cc1c[nH]c2ccccc12)C(N)=O: 0.17 L/P
